Items are presented alongside their recorded pEC50.
- Tested on: recombinant NL4-3 virus (nef section replaced with Renilla luciferase gene) in MT-2 cells
- measurementProtocol: HIV cell culture assay (antiviral activity, luciferase readout)
- Format: cell-based
- conditionDescription: NL43, MT-2 cells infected for 4-5 days with recombinant NL4-3 Renilla luciferase virus
pEC50: −log10 of the molar value.

molecule	pEC50
CC(C)Oc1ccc2c(=O)n(-c3ccc(Cl)c4c(NS(C)(=O)=O)nn(C)c34)c([C@H](Cc3cc(F)cc(F)c3)NC(=O)Cn3nc(C(F)F)c4c3C(F)(F)C3CC43)nc2n1 (stereo in doubt)	10.35
COc1cc(F)c2c(=O)n(-c3ccc(Cl)c4c(NS(=O)(=O)C5CC5)nn(CC(F)F)c34)c([C@H](Cc3cc(F)cc(F)c3)NC(=O)Cn3nc(C(F)F)c4c3C(F)(F)[C@@H]3C[C@H]43)nc2c1	9.82
CC(F)(F)c1ccc2c(=O)n(-c3ccc(Cl)c4c(NS(=O)(=O)C5CC5)nn(CC(F)F)c34)c([C@H](Cc3cc(F)cc(F)c3)NC(=O)Cn3nc(C(F)F)c4c3C(F)(F)[C@@H]3C[C@H]43)nc2c1	10.16
COc1ccc2c(=O)n(-c3ccc(Cl)c4c(NS(C)(=O)=O)nn(C)c34)c([C@H](Cc3cc(F)cc(F)c3)NC(=O)Cn3ccc(C4CCC4)n3)nc2c1	9.05
CCc1ccc2c(=O)n(-c3ccc(Cl)c4c(NS(C)(=O)=O)nn(C)c34)c([C@H](Cc3cc(F)cc(F)c3)NC(=O)Cn3nc(C(F)F)c4c3C(F)(F)[C@@H]3C[C@H]43)nc2c1	10.08
CC(F)(F)c1ccc2c(=O)n(-c3ccc(Cl)c4c(NS(C)(=O)=O)nn(CC(F)F)c34)c([C@H](Cc3cc(F)cc(F)c3)NC(=O)Cn3nc(C(F)F)c4c3C(F)(F)[C@@H]3C[C@H]43)nc2c1	10.08
Cn1nc(NS(C)(=O)=O)c2c(Cl)ccc(-n3c([C@H](Cc4cc(F)cc(F)c4)NC(=O)Cn4nc(C(F)F)c5c4C(F)(F)[C@@H]4C[C@H]54)nc4cc(OCCCF)ccc4c3=O)c21	10.31
COc1ccc2c(=O)n(-c3ccc(Cl)c4c(NS(C)(=O)=O)nn(C)c34)c([C@H](Cc3cc(F)cc(F)c3)NC(=O)Cn3ccc(C4CC4)n3)nc2n1	9.88
CCCCOc1ccc2c(=O)n(-c3ccc(Cl)c4c(NS(C)(=O)=O)nn(C)c34)c([C@H](Cc3cc(F)cc(F)c3)NC(=O)Cn3nc(C(F)F)c4c3C(F)(F)[C@@H]3C[C@H]43)nc2c1	9.68
Cn1nc(NS(C)(=O)=O)c2c(CCC(F)(F)F)ccc(-n3c([C@H](Cc4cc(F)cc(F)c4)NC(=O)Cn4nc(C(F)F)c5c4C(F)(F)[C@@H]4C[C@H]54)nc4cc(CCC(F)(F)F)ccc4c3=O)c21	9.24

Source listed as patent US20240374598A1.
